- TESTED_TARGET: CLK1A (Homo sapiens)
- Construct: purchased in-house DSF kinase panel (SGC-style construct names; the trailing letter is the construct ID)
- Sequence (P49759 148-484): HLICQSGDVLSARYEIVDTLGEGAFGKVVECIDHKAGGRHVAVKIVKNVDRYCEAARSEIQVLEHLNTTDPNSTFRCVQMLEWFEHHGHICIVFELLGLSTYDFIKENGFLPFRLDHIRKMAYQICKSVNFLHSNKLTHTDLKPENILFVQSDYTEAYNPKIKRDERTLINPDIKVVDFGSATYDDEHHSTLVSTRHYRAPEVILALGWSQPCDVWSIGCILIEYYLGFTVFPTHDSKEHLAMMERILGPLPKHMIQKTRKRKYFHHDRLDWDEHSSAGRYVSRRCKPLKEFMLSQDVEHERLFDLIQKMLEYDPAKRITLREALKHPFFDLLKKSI
- ASSAY_OVERVIEW: DSF Tm panel
- Type: binding
- REPORTED_CONDITIONS: 10 μM compound
PARAMETER_MEASURED: ΔTm at 10 µM (°C)
Respond with the bare value in °C.

COc1cc(CNC(=O)Nc2ccc3cc2OCCOCCNc2ccn4ncc-3c4n2)ccc1F    4.7
COc1ccccc1CNC(=O)Nc1ccc2cc1OCCOCCNc1ccn3ncc-2c3n1    2.8
O=C(NCc1ccc(C(F)(F)F)cc1)Nc1ccc2cc1OCCOCCNc1ccn3ncc-2c3n1    2.3
O=C(NCc1ccccc1C(F)(F)F)Nc1ccc2cc1OCCOCCNc1ccn3ncc-2c3n1    2.3

Next compound, ΔTm at 10 µM to be filled in.
Q: I'd like to know its ΔTm at 10 µM. The compound in question is "O=C(NCc1ccc(Cl)cc1F)Nc1ccc2cc1OCCOCCNc1ccn3ncc-2c3n1"
A: 2.8
